- Test system: INSRR
- test.context: concentration: 1 μM, replicates: in singlicate; n = 1;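 further: KINOMEscan kinase panel screen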
// reported %Inh for each item listed
endpoint: %Inh (%)

- compound: "CC(C)c1ccc(O)cc1Nc1ccnc2ccc(C(F)(F)F)cc12"
  study.target: "INSRR"
  endpoint: "%Inh"
  meas.value: 7
- compound: "COc1ccc(Nc2nccc(-c3ccc(NC(=O)c4cc5cc(F)ccc5[nH]4)cc3)n2)cc1"
  study.target: "INSRR"
  endpoint: "%Inh"
  meas.value: 0
- compound: "Cc1cnc(N)c(/C=C/c2cncc(C(=O)NCCc3ccc(Cl)cc3Cl)c2)c1.Cl"
  study.target: "INSRR"
  endpoint: "%Inh"
  meas.value: 0
- compound: "Cc1ccc(NC(=O)Nc2ccc(Cl)c(C(F)(F)F)c2)cc1-c1ccc(C(=O)Nc2ccncc2)cc1"
  study.target: "INSRR"
  endpoint: "%Inh"
  meas.value: 5
- compound: "Cc1ccc(NC(=O)Nc2ccc(Cl)cc2)cc1-c1ccc(C(=O)Nc2ccncc2)cc1"
  study.target: "INSRR"
  endpoint: "%Inh"
  meas.value: 0
- compound: "COC(=O)C(NC(=O)NC1CCN(c2ccnc(Nc3ccc(F)cc3)n2)C1)c1ccccc1 (centres unmarked)"
  study.target: "INSRR"
  endpoint: "%Inh"
  meas.value: 0
- compound: "CS(=O)(=O)CCNCc1nc(-c2ccc3ncnc(Nc4ccc(OCc5ccccc5)c(Cl)c4)c3c2)cs1.Cl"
  study.target: "INSRR"
  endpoint: "%Inh"
  meas.value: 0
- compound: "Cn1cnc2c(N)ncnc21"
  study.target: "INSRR"
  endpoint: "%Inh"
  meas.value: 0

###

- System: CDK8
- test.context: concentration: 1 μM, replicates: in singlicate; n = 1
Ranges used to classify %Inh: low interval (below 10%), middle interval (10% to below 40%), high interval (40% or more)

- molecule: "O=c1cc(N2CCOCC2)nc2n(Cc3ccccc3F)ccn12 [GSK2297428]"
  class: "middle interval"
- molecule: "COc1ccc(Nc2nccc(NCCNC(=O)Nc3cc(C)ccc3C)n2)cc1 [GSK1379899]"
  class: "middle interval"
- molecule: "CNc1nc(-c2ccc3c(N)n[nH]c3c2)cc(N2C[C@@H](C(=O)Nc3ccccc3)CC[C@H]2C)n1 [GSK2298859]"
  class: "low interval"
- molecule: "Cc1ccccc1-c1cc(-c2c[nH]nc2-c2ccccn2)ccn1 [GW680061]"
  class: "middle interval"
- molecule: "CC(=O)c1cccc(NC(=O)NC2CCN(c3ccnc(Nc4ccc(F)cc4)n3)C2)c1 (stereo not drawn) [GSK1379710]"
  class: "high interval"
- molecule: "CNCc1ccc2nc(NC(=O)c3ccc(C(C)(C)C)cc3)cn2c1"
  class: "low interval"
- molecule: "CNc1cc(-c2ccc3c(N)n[nH]c3c2)nc(N)n1 [GSK2224810]"
  class: "middle interval"
- molecule: "Nc1ncnc2occ(-c3ccc4c(c3)CCN4C(=O)Cc3cc(F)ccc3F)c12 [GSK2645446]"
  class: "high interval"

###

- System: PCTK2
- Construct: gene CDK17
- test.context: concentration: 1 μM, replicates: in singlicate; n = 1

- compound: "Fc1ccc(-c2nc[nH]c2-c2ccncc2)cc1"
  %Inh, %: 0
- compound: "CNc1nc(-c2ccc3c(N)n[nH]c3c2)cc(N2C[C@@H](C(=O)NC3CCCCC3)OC[C@H]2C)n1"
  %Inh, %: 10
- compound: "NS(=O)(=O)c1cccc(N/C=C2\\C(=O)Nc3ccc(S(=O)(=O)Cc4c(Cl)cccc4Cl)cc32)c1"
  %Inh, %: 0
- compound: "CCn1c(-c2ccccc2)nc2cnccc21"
  %Inh, %: 0
- compound: "Nc1cccc(-c2ccc3c(N)n[nH]c3c2)n1"
  %Inh, %: 20
- compound: "CC[C@@H]1CO[C@H](C(=O)Nc2ccccc2)CN1c1cc(-c2ccc3c(N)n[nH]c3c2)nc(NC)n1"
  %Inh, %: 11
- compound: "COc1cccc(CNC(=O)NC2CCN(c3ccnc(Nc4ccc(F)cc4)n3)C2)c1 (stereo not drawn)"
  %Inh, %: 0
- compound: "COc1ccc(CSc2nnc(-c3ccc4nccn4c3)o2)cc1C(F)(F)F"
  %Inh, %: 8
- compound: "CNc1nc(-c2ccc3c(N)n[nH]c3c2)cc(N2C[C@@H](C(=O)Nc3ccccc3)CC[C@H]2C)n1"
  %Inh, %: 0
- compound: "Cc1ccc(NC(=O)c2ccc(Cl)cc2)cc1-c1ccc(C(=O)Nc2ccncc2)cc1"
  %Inh, %: 0
- compound: "CS(=O)(=O)CCNCc1nc(-c2ccc3ncnc(Nc4ccc(OCc5ccccc5)c(Cl)c4)c3c2)cs1.Cl"
  %Inh, %: 0
- compound: "CCc1ccc(-c2ccc3c(c2)-c2n[nH]cc2S(=O)(=O)N3C)cc1"
  %Inh, %: 0
- compound: "COC(=O)c1cccc(NC(=O)NC2CCN(c3ccnc(Nc4ccc(OC)cc4)n3)C2)c1 (stereo not drawn)"
  %Inh, %: 0
- compound: "Cc1ccc(NC(=O)Nc2ccc(Cl)c(C(F)(F)F)c2)cc1-c1ccc(C(=O)Nc2ccncc2)cc1"
  %Inh, %: 6
- compound: "CNc1cc(-c2ccc3c(N)n[nH]c3c2)nc(N)n1"
  %Inh, %: 16
- compound: "Cc1c(Cn2c(C)c(C)n3c(=O)cc(N4CCOCC4)nc23)cccc1C(F)(F)F"
  %Inh, %: 0
- compound: "Cc1c(Cn2c3ccccc3n3c(=O)cc(N4CCOCC4)nc23)cccc1C(F)(F)F"
  %Inh, %: 0
- compound: "O=c1cc(N2CCOCC2)nc2n(Cc3ccccc3F)ccn12"
  %Inh, %: 0
- compound: "Cc1ccccc1-c1cc(-c2c[nH]nc2-c2ccccn2)ccn1"
  %Inh, %: 7
- compound: "Cc1cnc(N)c(/C=C/c2cncc(C(=O)NCCc3ccc(Cl)cc3Cl)c2)c1.Cl"
  %Inh, %: 0
- compound: "O=c1cc(N2CCOCC2)nc2n(Cc3cccc(Cl)c3Cl)c3ccccc3n12"
  %Inh, %: 8
- compound: "CC(=O)c1cccc(NC(=O)NC2CCN(c3ccnc(Nc4ccc(F)cc4)n3)C2)c1 (stereo not drawn)"
  %Inh, %: 19
- compound: "Cl.Cl.Cl.N#Cc1ccc(CCNc2nccc(-c3cccc(CN4CCNCC4)c3)n2)cc1"
  %Inh, %: 0
- compound: "Cc1ccc(-c2nc(Nc3ccncc3)c3ccccc3n2)s1"
  %Inh, %: 0
- compound: "COC(=O)c1cccc(NC(=O)NC2CCN(c3ccnc(Nc4ccc(F)cc4)n3)C2)c1 (stereo not drawn)"
  %Inh, %: 0
- compound: "FC(F)(F)c1ccccc1-c1cc(-c2c[nH]nc2-c2ccccn2)ccn1"
  %Inh, %: 10
- compound: "CC(=O)c1c(C)c2cnc(Nc3ccn(C)n3)nc2n(C2CCCC2)c1=O"
  %Inh, %: 0
- compound: "CC(C)c1ccc(O)cc1Nc1ccnc2ccc(C(F)(F)F)cc12"
  %Inh, %: 0
- compound: "CN1c2ccc(-c3ccc(C(N)=O)cc3)cc2-c2[nH]ncc2S1(=O)=O"
  %Inh, %: 0
- compound: "COc1ccc(Nc2nccc(-c3ccc(NC(=O)c4cc5cc(F)ccc5[nH]4)cc3)n2)cc1"
  %Inh, %: 0
